Provenance of the data: paper PMC12057046

B1: KIAA1614 peptide 568-583 (uncharacterized protein KIAA1614), 16-mer library wild type / USP8 rhodanese domain (ubiquitin carboxyl-terminal hydrolase 8, residues 174-317) (parent)
chain 1: GMERVLGGLSSPLRLL
chain 2: KCETKEKGAITAKELYTMMTDKNISLIIMDARRMQDYQDSCILHSLSVPEEAISPGVTASWIEAHLPDDSKDTWKKRGNVEYVVLLDWFSSAKDLQIGTTLRSLKDALFKWESKTVLRNEPLVLEGGYENWLLCYPQYTTNAKV

Variants of: B1
assay_info: peptide-phage display deep mutational scan (M13, 16-mer library, displayed with a C-terminal GGGSG linker encoded by the 3' flank) selected against the GST-tagged USP8 rhodanese domain, four rounds; NGS counts summed over selection …
applied_conditions: with USP8 rhodanese domain (ubiquitin carboxyl-terminal hydrolase 8, residues 174-317), 10 µg GST-bait on MaxiSorp, pre-cleared on GST, 2 h at 4 °C, five washes with 0.05% Tween 20 in PBS, not graded, scale: average over two replicas of the peptide's fractional NGS count
readout_name: screen value

{"ordered_residues": "chain 1 VMERVLGGLSSPLRLL [chain 1 G1V]", "readout_name": "screen value", "data_value": "3.79e-05"}
{"ordered_residues": "chain 1 LMERVLGGLSSPLRLL [chain 1 G1L]", "readout_name": "screen value", "data_value": "3.16e-05"}
{"ordered_residues": "chain 1 GMERVLGGLSSPLYLL [chain 1 R14Y]", "readout_name": "screen value", "data_value": 0.000377}
{"ordered_residues": "chain 1 GMYRVLGGLSSPLRLL [chain 1 E3Y]", "readout_name": "screen value", "data_value": 0.000118}
{"ordered_residues": "chain 1 GMELVLGGLSSPLRLL [chain 1 R4L]", "readout_name": "screen value", "data_value": "1.26e-05"}
{"ordered_residues": "chain 1 GYERVLGGLSSPLRLL [chain 1 M2Y]", "readout_name": "screen value", "data_value": 0.00188}
{"ordered_residues": "chain 1 GMERVLGVLSSPLRLL [chain 1 G8V]", "readout_name": "screen value", "data_value": 0.000138}
{"ordered_residues": "chain 1 GMERVLGGLSSPFRLL [chain 1 L13F]", "readout_name": "screen value", "data_value": "3.09e-05"}
{"ordered_residues": "chain 1 GSERVLGGLSSPLRLL [chain 1 M2S]", "readout_name": "screen value", "data_value": 0.00782}
{"ordered_residues": "chain 1 GMERVLGGLISPLRLL [chain 1 S10I]", "readout_name": "screen value", "data_value": "6.32e-06"}
{"ordered_residues": "chain 1 GMERVLGGLSSPLRLG [chain 1 L16G]", "readout_name": "screen value", "data_value": "6.32e-06"}
{"ordered_residues": "chain 1 GMERVLGGLSFPLRLL [chain 1 S11F]", "readout_name": "screen value", "data_value": "2.53e-05"}
{"ordered_residues": "chain 1 GMERVLGGHSSPLRLL [chain 1 L9H]", "readout_name": "screen value", "data_value": "4.07e-05"}
{"ordered_residues": "chain 1 GMERVLLGLSSPLRLL [chain 1 G7L]", "readout_name": "screen value", "data_value": 0.000596}
{"ordered_residues": "chain 1 GMERVPGGLSSPLRLL [chain 1 L6P]", "readout_name": "screen value", "data_value": 0.000164}
{"ordered_residues": "chain 1 GMERVLGGPSSPLRLL [chain 1 L9P]", "readout_name": "screen value", "data_value": 0.000947}
{"ordered_residues": "chain 1 GMERVLFGLSSPLRLL [chain 1 G7F]", "readout_name": "screen value", "data_value": 0.00722}
{"ordered_residues": "chain 1 GMDRVLGGLSSPLRLL [chain 1 E3D]", "readout_name": "screen value", "data_value": 0.00356}
{"ordered_residues": "chain 1 GMERVLGGLSSTLRLL [chain 1 P12T]", "readout_name": "screen value", "data_value": "1.55e-05"}
{"ordered_residues": "chain 1 GMERVLGGLSSPLRLP [chain 1 L16P]", "readout_name": "screen value", "data_value": "1.26e-05"}
{"ordered_residues": "chain 1 GMERVLGGLPSPLRLL [chain 1 S10P]", "readout_name": "screen value", "data_value": "1.55e-05"}
{"ordered_residues": "chain 1 GMERVLGGLSSPLTLL [chain 1 R14T]", "readout_name": "screen value", "data_value": 0.00135}
{"ordered_residues": "chain 1 GAERVLGGLSSPLRLL [chain 1 M2A]", "readout_name": "screen value", "data_value": 0.00538}
{"ordered_residues": "chain 1 KMERVLGGLSSPLRLL [chain 1 G1K]", "readout_name": "screen value", "data_value": 0.000202}
{"ordered_residues": "chain 1 GHERVLGGLSSPLRLL [chain 1 M2H]", "readout_name": "screen value", "data_value": 0.0157}
{"ordered_residues": "chain 1 GDERVLGGLSSPLRLL [chain 1 M2D]", "readout_name": "screen value", "data_value": 0.0101}
{"ordered_residues": "chain 1 GMERVLGGLSSPGRLL [chain 1 L13G]", "readout_name": "screen value", "data_value": "6.32e-05"}
{"ordered_residues": "chain 1 GMFRVLGGLSSPLRLL [chain 1 E3F]", "readout_name": "screen value", "data_value": "6.32e-06"}
{"ordered_residues": "chain 1 GMERELGGLSSPLRLL [chain 1 V5E]", "readout_name": "screen value", "data_value": 0.0217}
{"ordered_residues": "chain 1 GMERVLGGLSSPLRLQ [chain 1 L16Q]", "readout_name": "screen value", "data_value": "7.58e-05"}
{"ordered_residues": "chain 1 GMERVLGDLSSPLRLL [chain 1 G8D]", "readout_name": "screen value", "data_value": "6.32e-06"}
{"ordered_residues": "chain 1 EMERVLGGLSSPLRLL [chain 1 G1E]", "readout_name": "screen value", "data_value": 0.000708}
{"ordered_residues": "chain 1 GMERVLGGLSSPLRLM [chain 1 L16M]", "readout_name": "screen value", "data_value": 0.00379}
{"ordered_residues": "chain 1 GMERVLSGLSSPLRLL [chain 1 G7S]", "readout_name": "screen value", "data_value": 0.000797}
{"ordered_residues": "chain 1 GMERVLQGLSSPLRLL [chain 1 G7Q]", "readout_name": "screen value", "data_value": 0.00689}
{"ordered_residues": "chain 1 GMERVLGGLSRPLRLL [chain 1 S11R]", "readout_name": "screen value", "data_value": "6.32e-06"}
{"ordered_residues": "chain 1 GMERVLAGLSSPLRLL [chain 1 G7A]", "readout_name": "screen value", "data_value": 0.00275}
{"ordered_residues": "chain 1 GMERVLRGLSSPLRLL [chain 1 G7R]", "readout_name": "screen value", "data_value": 0.00011}
{"ordered_residues": "chain 1 GMERVLGGLSSPLRLA [chain 1 L16A]", "readout_name": "screen value", "data_value": "1.55e-05"}
{"ordered_residues": "chain 1 GQERVLGGLSSPLRLL [chain 1 M2Q]", "readout_name": "screen value", "data_value": 0.00237}
{"ordered_residues": "chain 1 GLERVLGGLSSPLRLL [chain 1 M2L]", "readout_name": "screen value", "data_value": 0.00111}
{"ordered_residues": "chain 1 GMERVLGGLSSPLRLI [chain 1 L16I]", "readout_name": "screen value", "data_value": 0.000468}
{"ordered_residues": "chain 1 GMERVLGGVSSPLRLL [chain 1 L9V]", "readout_name": "screen value", "data_value": 0.00586}
{"ordered_residues": "chain 1 IMERVLGGLSSPLRLL [chain 1 G1I]", "readout_name": "screen value", "data_value": "8.36e-05"}
{"ordered_residues": "chain 1 GMERVLGGLSSPLRLT [chain 1 L16T]", "readout_name": "screen value", "data_value": "1.55e-05"}
{"ordered_residues": "chain 1 GMERVLEGLSSPLRLL [chain 1 G7E]", "readout_name": "screen value", "data_value": 0.00446}
